As a worked illustration, we turn to GI50 data collected for H358.
Write the value in µM as a bare number.

Reported GI50 (H358) for entry CCCCCCCCc1ccc(NC(=O)NC2(CC(=O)O)CC[N+](C)(C)CC2)cc1 [Example S2, 2,2,2-trifluoroacetate] is 3.1

Reported GI50 (H358) for entry CCCCCCCCc1ccc(NC(=O)NC2(CC(=O)O)CC[N+](C)(C)C2)cc1 (stereo not shown) [Example S18, 2,2,2-trifluoroacetate] is 2.7

Reported GI50 (H358) for entry CCCCCCCCc1ccc(NC(=O)NC2(CC(=O)O)C[N+](C)(C)C2)cc1 [Example S24, 2,2,2-trifluoroacetate] is 19

Reported GI50 (H358) for entry CCCCCCCCc1ccc(NS(=O)(=O)NC2(CC(=O)O)CCCN(C)C2)cc1 (stereo not shown) [Example S15, 2,2,2-trifluoroacetate] is 12
